studyTarget: T1, BRD^Baz2B K2098N (human, UniProt Q9UIF8 2054-2168, K2098N, fluorescent label (Monolith NT Protein Labelling Kit RED-NHS))
T1 construct: bromodomain (BRD) of human Baz2B with a cancer-associated point mutation, made on pNIC28-Bsa4-BAZ2B-BRD; Same limits as m1; mutation found in multiple myeloma; source: E. coli BL21(DE3)-R3-pRARE2, purified (Ni-NTA, Sephadex 75)
T1 sequence: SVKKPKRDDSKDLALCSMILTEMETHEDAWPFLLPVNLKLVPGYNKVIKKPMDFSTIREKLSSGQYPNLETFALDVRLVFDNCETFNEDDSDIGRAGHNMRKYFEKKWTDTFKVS
procedureSummary: MST; 100 nM fluorescently labelled (RED-NHS) BRD^Baz2B, peptide (H3 or H3K14ac) titrated; MST buffer 150 mM Tris-HCl, 50 mM NaCl, 10 mM MgCl2, pH 7.6, 0.0025% Pluronic, 200 ng/ul BSA; 25 C, 20% MST power; at least triplicate
testConditions: both partners purified
assayEndpoint: Kd (µM)

[
  {
    "binder": "Ac-TARKSTGGKAPRKQL-NH2 (N-terminal tail of histone H3, residues 6-20; also called unmodified H3 peptide; unmodified H3K14 tail peptide; source: synthetic peptide, bought: alta Bioscience) [H3 peptide (Ac-TARKSTGGKAPRKQL-NH2)]",
    "assayEndpoint": "Kd",
    "readoutValue": 8
  },
  {
    "binder": "Ac-TARKSTGGK(Ac)APRKQL-NH2 (N-terminal tail of histone H3, residues 6-20; also called acetylated H3 tail peptide; acetylated at K14 (K14ac) N-terminal H3 histone tail peptide; source: synthetic peptide, bought: alta Bioscience) [H3K14ac peptide (Ac-TARKSTGGK(ac)APRKQL-NH2)]",
    "assayEndpoint": "Kd",
    "readoutValue": 24
  }
]
